Target: CDK3 CCNE1 (human) (UniProt Q00526+P24864)
Sequence (P24864 whole entry, looked up): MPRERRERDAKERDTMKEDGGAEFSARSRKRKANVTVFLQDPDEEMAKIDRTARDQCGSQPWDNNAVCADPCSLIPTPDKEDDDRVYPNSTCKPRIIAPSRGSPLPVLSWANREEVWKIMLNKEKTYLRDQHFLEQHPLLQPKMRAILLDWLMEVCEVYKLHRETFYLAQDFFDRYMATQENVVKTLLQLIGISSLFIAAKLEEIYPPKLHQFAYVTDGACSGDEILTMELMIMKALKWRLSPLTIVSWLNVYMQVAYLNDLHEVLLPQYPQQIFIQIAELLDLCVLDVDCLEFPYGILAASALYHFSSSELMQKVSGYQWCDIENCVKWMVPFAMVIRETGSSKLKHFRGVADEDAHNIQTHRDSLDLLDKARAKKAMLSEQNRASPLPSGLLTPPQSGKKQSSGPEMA
Sequence (Q00526 whole entry, looked up): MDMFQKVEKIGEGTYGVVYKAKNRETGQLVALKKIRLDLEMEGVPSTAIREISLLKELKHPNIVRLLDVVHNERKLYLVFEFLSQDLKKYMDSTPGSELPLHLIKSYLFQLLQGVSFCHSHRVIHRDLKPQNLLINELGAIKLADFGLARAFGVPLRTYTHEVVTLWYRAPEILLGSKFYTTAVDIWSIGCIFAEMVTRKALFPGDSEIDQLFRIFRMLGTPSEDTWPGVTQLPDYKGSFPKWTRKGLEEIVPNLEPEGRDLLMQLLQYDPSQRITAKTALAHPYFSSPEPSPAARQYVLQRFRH
Experiment: radiometric filter-binding kinase assay, Kinase HotSpot
Conditions: compound 0.5 µM; ATP 10 µM
Field: label. Allowed values: yes (residual activity < 90%) or no (residual activity >= 90%).

compound	group_label
CO[C@H]1CC2CC[C@@H](C)[C@@](O)(O2)C(=O)C(=O)N2CCCC[C@H]2C(=O)OC([C@H](C)C[C@@H]2CC[C@@H](O)[C@H](OC)C2)CC(=O)[C@H](C)/C=C(\C)[C@@H](O)[C@@H](OC)C(=O)[C@H](C)C[C@H](C)/C=C/C=C/C=C/1C (stereo not given in full)	no

Below 90% on residual activity? Entry `CCOC(=O)c1c(C)[nH]c(/C=C2\C(=O)Nc3ccccc32)c1C`
no

Below 90% on residual activity? Entry `Cc1ccc(Nc2nccc(N(C)c3ccc4c(C)n(C)nc4c3)n2)cc1S(N)(=O)=O`
no

Below 90% on residual activity? Entry `O=C1NC(=O)c2c1c1c3ccccc3n3c1c1c2c2ccccc2n1C1CCC3O1`
yes

###

Target: FGFR1 (human) (UniProt P11362)
Sequence (P11362 whole entry, looked up): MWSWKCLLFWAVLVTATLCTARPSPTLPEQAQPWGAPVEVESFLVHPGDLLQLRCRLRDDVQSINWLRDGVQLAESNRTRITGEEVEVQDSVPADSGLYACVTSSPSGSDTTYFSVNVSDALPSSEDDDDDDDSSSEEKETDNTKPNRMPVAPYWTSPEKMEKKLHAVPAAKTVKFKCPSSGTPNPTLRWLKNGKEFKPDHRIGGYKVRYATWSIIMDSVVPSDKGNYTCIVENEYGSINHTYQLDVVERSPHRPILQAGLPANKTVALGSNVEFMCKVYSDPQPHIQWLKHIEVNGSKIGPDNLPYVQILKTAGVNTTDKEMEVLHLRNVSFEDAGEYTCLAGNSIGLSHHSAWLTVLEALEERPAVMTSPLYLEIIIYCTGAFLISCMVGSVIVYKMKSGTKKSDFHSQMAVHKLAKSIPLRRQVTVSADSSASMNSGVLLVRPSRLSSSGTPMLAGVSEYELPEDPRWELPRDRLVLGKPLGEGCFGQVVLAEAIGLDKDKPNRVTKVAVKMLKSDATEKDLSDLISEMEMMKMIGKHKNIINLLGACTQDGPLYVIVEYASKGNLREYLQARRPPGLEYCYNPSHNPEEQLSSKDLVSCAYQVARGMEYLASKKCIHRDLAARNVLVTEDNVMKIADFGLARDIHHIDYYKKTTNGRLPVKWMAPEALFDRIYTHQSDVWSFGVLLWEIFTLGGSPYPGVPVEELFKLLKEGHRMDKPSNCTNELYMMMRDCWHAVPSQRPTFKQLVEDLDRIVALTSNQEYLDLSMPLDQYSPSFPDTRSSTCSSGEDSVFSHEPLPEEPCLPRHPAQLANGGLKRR
Assay: radiometric filter-binding kinase assay, Kinase HotSpot
Conditions: compound 0.5 µM; ATP 10 µM
For each record, write down the corresponding residual activity.
Give bare numbers, in %.

The following compounds have reported results that may help.
smiles_string	unit_abbrev	residual activity
COc1ccc2c(c[n+](C)c3c4cc5c(cc4ccc23)OCO5)c1OC	%	96
Cc1ccc(S(=O)(=O)/C=C/C#N)cc1	%	106
Nc1ncnc2[nH]nc(Nc3ccc(F)cc3)c12	%	91.2

For every item in the list below, what is its measured residual activity?
1. O=C(Nc1cccc(Nc2nccc(Nc3cccc(C(F)(F)F)c3)n2)c1)C1CC1
2. CCC(=O)Nc1ccc2ncnc(Nc3cccc(Br)c3)c2c1

99.6
108

###

Molecular target: CDK3 CCNE1 (human) (UniProt Q00526+P24864)
Test: radiometric filter-binding kinase assay, Kinase HotSpot
Conditions: compound 0.5 µM; ATP 10 µM
For each record, write down the corresponding residual activity.
Give bare numbers, in %.

The following compounds have reported results that may help.
smiles_string	residual activity [%]
CNC(=O)c1cc(Oc2ccc(NC(=O)Nc3ccc(Cl)c(C(F)(F)F)c3)cc2)ccn1	96.5
c1ccc(-c2n[nH]cc2-c2ccnc3ccccc23)nc1	94.2
c1ccc(-c2n[nH]c3c2oc2ccccc23)cc1	90
CCN(CC)CCNC(=O)c1c(C)[nH]c(/C=C2\C(=O)Nc3ccc(Cl)cc32)c1C	88.3

What reported residual activity corresponds to `CCN(CC)CCNC(=O)c1c(C)[nH]c(/C=C2\C(=O)Nc3ccc(F)cc32)c1C` on CDK3 CCNE1 (human) (UniProt Q00526+P24864)?
91

###

Biological target: UniProtKB P16591
Sequence (P16591 whole entry, looked up): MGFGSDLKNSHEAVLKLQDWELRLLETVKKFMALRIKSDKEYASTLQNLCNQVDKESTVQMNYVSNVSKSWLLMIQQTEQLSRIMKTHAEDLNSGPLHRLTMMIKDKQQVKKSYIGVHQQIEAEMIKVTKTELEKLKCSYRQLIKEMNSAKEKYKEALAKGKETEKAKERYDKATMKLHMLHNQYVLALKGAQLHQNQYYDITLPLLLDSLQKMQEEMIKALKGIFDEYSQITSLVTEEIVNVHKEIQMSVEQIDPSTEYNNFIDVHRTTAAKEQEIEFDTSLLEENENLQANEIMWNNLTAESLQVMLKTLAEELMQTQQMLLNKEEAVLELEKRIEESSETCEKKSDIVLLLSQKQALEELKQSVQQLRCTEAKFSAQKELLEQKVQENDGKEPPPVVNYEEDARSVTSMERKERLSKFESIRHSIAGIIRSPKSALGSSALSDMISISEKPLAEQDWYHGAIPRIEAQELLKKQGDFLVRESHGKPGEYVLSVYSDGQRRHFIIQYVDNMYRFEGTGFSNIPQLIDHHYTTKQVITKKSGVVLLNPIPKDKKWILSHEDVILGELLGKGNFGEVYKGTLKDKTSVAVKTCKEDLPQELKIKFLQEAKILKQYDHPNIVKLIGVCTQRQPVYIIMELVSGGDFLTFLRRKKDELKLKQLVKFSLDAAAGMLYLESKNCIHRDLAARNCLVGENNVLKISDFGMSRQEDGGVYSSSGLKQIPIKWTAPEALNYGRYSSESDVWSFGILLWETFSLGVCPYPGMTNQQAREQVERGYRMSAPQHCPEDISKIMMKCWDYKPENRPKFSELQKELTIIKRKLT
Experiment: radiometric filter-binding kinase assay, Kinase HotSpot
Conditions: compound 0.5 µM; ATP 10 µM
Field: label. Allowed values: 1 (yes) (residual activity < 90%) or 0 (no) (residual activity >= 90%).

smiles_string	group_label
Cc1[nH]c(/C=C2\C(=O)Nc3ccc(S(=O)(=O)N(C)c4cccc(Cl)c4)cc32)c(C)c1C(=O)N1CCN(C)CC1	1 (yes)

Kindly review the next compound as well.
Below 90% on residual activity? Entry `CNc1cc2c(Nc3cccc(Br)c3)ncnc2cn1`
0 (no)

The measured values listed here are drawn from the kinase profiling compilation of Christmann-Franck et al. (2016).
